Target: truncated form of human NaV 1.8 with full channel activity (Homo sapiens)
Test: E-VIPR Assay Method A for detecting and measuring Nav inhibition (HEK cells, membrane potential FRET dyes, electrical stimulation)
Assay type: cell-based
Settings: HEK cells expressing human NaV 1.8, HS (human serum) in compound loading buffer, 11 point dose response, top dose 3 μM, Table 20A, read-out: Nav 1.8 MedChem Optical Assay EVIPR Assay Method A HS IC50
measured parameter: pIC50
Note on pIC50: it is the negative log10 of concentration, concentration in mol/L.

Give a short answer stating reported pIC50 for COc1cc(F)ccc1-c1cc(C(F)(F)F)ccc1C(=O)Nc1ccc(F)c(C(N)=O)c1 .
6.77

Give a short answer stating reported pIC50 for NC(=O)c1cc(NC(=O)c2c(Oc3ccc(OC(F)(F)F)c(Cl)c3)ccc(C(F)(F)F)c2F)ccn1 .
7.77

Give a short answer stating reported pIC50 for COc1cc(OC(F)(F)F)ccc1Oc1cc(Cl)cc(OC)c1C(=O)Nc1cc(C(N)=O)ncc1C .
6.37

Further cases:
Give a short answer stating reported pIC50 for NC(=O)c1cc(NC(=O)c2c(Cl)cc(Cl)cc2Oc2ccc(F)cc2)ccn1 .
6.34

====

Molecular target: truncated form of human NaV 1.8 with full channel activity (Homo sapiens)
Test: E-VIPR Assay Method A for detecting and measuring Nav inhibition (HEK cells, membrane potential FRET dyes, electrical stimulation)
Format: cell-based
Conditions: HEK cells expressing human NaV 1.8, HS (human serum) in compound loading buffer, 11 point dose response, top dose 3 μM, Table 20A, read-out: Nav 1.8 MedChem Optical Assay EVIPR Assay Method A HS IC50
measured parameter: log10 of IC50 (log10 of the value in nM)
Reminder: these figures are log10 of reported IC50, in nM before transformation.

Worked examples follow.
Provide log10 of IC50, recorded with truncated form of human NaV 1.8 with full channel activity (Homo sapiens), of [2H]C([2H])([2H])Oc1cc(OC(F)(F)F)ccc1Oc1ccc(C(F)(F)F)c(F)c1C(=O)Nc1ccc(C(=O)NC)nc1
1.70

Provide log10 of IC50, recorded with truncated form of human NaV 1.8 with full channel activity (Homo sapiens), of NC(=O)c1cc(NC(=O)c2c(F)c(C(F)(F)F)cc(OCc3ccccc3)c2Oc2ccc(OC(F)(F)F)cc2)ccc1F
3.04

Provide log10 of IC50, recorded with truncated form of human NaV 1.8 with full channel activity (Homo sapiens), of COc1cc(OC(F)(F)F)ccc1Oc1ccc(C(F)(F)F)c(F)c1C(=O)Nc1ccc(C(N)=O)nc1
1.20

Provide log10 of IC50, recorded with truncated form of human NaV 1.8 with full channel activity (Homo sapiens), of Cc1cc(F)ccc1Oc1cccc(C(F)(F)F)c1C(=O)Nc1ccc(F)c(C(N)=O)c1
2.75

Provide log10 of IC50, recorded with truncated form of human NaV 1.8 with full channel activity (Homo sapiens), of [2H]C([2H])([2H])Oc1c(Oc2cc(Cl)c(C([2H])([2H])[2H])c(F)c2C(=O)Nc2ccnc(C(N)=O)c2)ccc(OC(F)(F)F)c1F
0.48

Provide log10 of IC50, recorded with truncated form of human NaV 1.8 with full channel activity (Homo sapiens), of COc1cc(F)ccc1Oc1cc(Cl)cc(Cl)c1C(=O)Nc1ccnc(C(N)=O)c1
1.88

Below: the item to evaluate.
Provide log10 of IC50, recorded with truncated form of human NaV 1.8 with full channel activity (Homo sapiens), of NC(=O)c1cccc(NC(=O)c2c(Oc3ccc(OC(F)(F)F)cc3)ccc(C(F)(F)F)c2F)c1
1.34

====

Target: truncated form of human NaV 1.8 with full channel activity (Homo sapiens)
Assay: E-VIPR Assay Method A for detecting and measuring Nav inhibition (HEK cells, membrane potential FRET dyes, electrical stimulation)
Assay type: cell-based
Details: HEK cells expressing human NaV 1.8, HS (human serum) in compound loading buffer, 11 point dose response, top dose 3 μM, Table 20A, read-out: Nav 1.8 MedChem Optical Assay EVIPR Assay Method A HS IC50
measured parameter: IC50 (nM)
Numeric answer only, unit nM assumed.

Worked examples follow.
Provide IC50, recorded with truncated form of human NaV 1.8 with full channel activity (Homo sapiens), of COc1cc(OC(F)(F)F)ccc1Oc1cc(C2CC2)c(C(F)(F)F)cc1C(=O)Nc1ccnc(C(N)=O)c1
34

Provide IC50, recorded with truncated form of human NaV 1.8 with full channel activity (Homo sapiens), of [2H]C([2H])([2H])c1c(Oc2ccc(C(F)(F)F)c(F)c2C(=O)Nc2ccnc(C(N)=O)c2)ccc(OC(F)(F)F)c1F
17

Provide IC50, recorded with truncated form of human NaV 1.8 with full channel activity (Homo sapiens), of COc1cc(OC(F)(F)F)ccc1Oc1ccc(C(F)(F)F)c(OC)c1C(=O)Nc1ccc(F)c(C(N)=O)c1
2

Provide IC50, recorded with truncated form of human NaV 1.8 with full channel activity (Homo sapiens), of [2H]C([2H])([2H])Oc1cc(OC(F)(F)F)ccc1Oc1cc(C(F)(F)F)cc(C(F)(F)F)c1C(=O)Nc1ccc(C(N)=O)nc1
190

Provide IC50, recorded with truncated form of human NaV 1.8 with full channel activity (Homo sapiens), of COc1cc(OC(F)(F)F)ccc1Oc1ccc(C(F)(F)F)c(F)c1C(=O)Nc1cncc(C(N)=O)c1
14

Provide IC50, recorded with truncated form of human NaV 1.8 with full channel activity (Homo sapiens), of [2H]C([2H])([2H])Oc1c(Oc2ccc(Cl)c(F)c2C(=O)Nc2ccnc(C(N)=O)c2)ccc(OC(F)(F)F)c1F
5

Provide IC50, recorded with truncated form of human NaV 1.8 with full channel activity (Homo sapiens), of COc1cc(OC(F)(F)F)ccc1Oc1cc(C2(C)CC2)ncc1C(=O)Nc1ccc(F)c(C(N)=O)c1
22

Provide IC50, recorded with truncated form of human NaV 1.8 with full channel activity (Homo sapiens), of COc1cc(OC(F)(F)F)ccc1Oc1cc(C(C)(C)F)ncc1C(=O)Nc1ccc(F)c(C(N)=O)c1
34

Further cases:
Provide IC50, recorded with truncated form of human NaV 1.8 with full channel activity (Homo sapiens), of [2H]C([2H])([2H])Oc1c(Oc2ccc(C(F)(F)F)c(F)c2C(=O)Nc2cc(C(N)=O)ncc2C)ccc(OC(F)(F)F)c1F
2

Provide IC50, recorded with truncated form of human NaV 1.8 with full channel activity (Homo sapiens), of COc1cc(OC(F)(F)F)ccc1Oc1cc(C2(C(F)(F)F)CC2)ncc1C(=O)Nc1ccnc(C(N)=O)c1
48

Provide IC50, recorded with truncated form of human NaV 1.8 with full channel activity (Homo sapiens), of COc1c(C(F)(F)F)ccc(Oc2ccc(OC(F)(F)F)cc2)c1C(=O)Nc1ccc(C(N)=O)c(F)c1
140

Provide IC50, recorded with truncated form of human NaV 1.8 with full channel activity (Homo sapiens), of CNC(=O)c1cccc(NC(=O)c2c(Oc3ccc(OC(F)(F)F)cc3OC)ccc(C(F)(F)F)c2F)c1
15

Provide IC50, recorded with truncated form of human NaV 1.8 with full channel activity (Homo sapiens), of NC(=O)c1cc(NC(=O)c2cnc(C3CC3)cc2Oc2ccc(OC(F)(F)F)c(F)c2)ccc1F
400

Provide IC50, recorded with truncated form of human NaV 1.8 with full channel activity (Homo sapiens), of COc1cc(OC(F)(F)F)ccc1Oc1cnc(C(F)(F)F)c(OC)c1C(=O)Nc1cc(C(N)=O)ncc1C
23

====

Molecular target: truncated form of human NaV 1.8 with full channel activity (Homo sapiens, UniProt Q9Y5Y9)
Sequence (Q9Y5Y9 126-1722 limits assumed): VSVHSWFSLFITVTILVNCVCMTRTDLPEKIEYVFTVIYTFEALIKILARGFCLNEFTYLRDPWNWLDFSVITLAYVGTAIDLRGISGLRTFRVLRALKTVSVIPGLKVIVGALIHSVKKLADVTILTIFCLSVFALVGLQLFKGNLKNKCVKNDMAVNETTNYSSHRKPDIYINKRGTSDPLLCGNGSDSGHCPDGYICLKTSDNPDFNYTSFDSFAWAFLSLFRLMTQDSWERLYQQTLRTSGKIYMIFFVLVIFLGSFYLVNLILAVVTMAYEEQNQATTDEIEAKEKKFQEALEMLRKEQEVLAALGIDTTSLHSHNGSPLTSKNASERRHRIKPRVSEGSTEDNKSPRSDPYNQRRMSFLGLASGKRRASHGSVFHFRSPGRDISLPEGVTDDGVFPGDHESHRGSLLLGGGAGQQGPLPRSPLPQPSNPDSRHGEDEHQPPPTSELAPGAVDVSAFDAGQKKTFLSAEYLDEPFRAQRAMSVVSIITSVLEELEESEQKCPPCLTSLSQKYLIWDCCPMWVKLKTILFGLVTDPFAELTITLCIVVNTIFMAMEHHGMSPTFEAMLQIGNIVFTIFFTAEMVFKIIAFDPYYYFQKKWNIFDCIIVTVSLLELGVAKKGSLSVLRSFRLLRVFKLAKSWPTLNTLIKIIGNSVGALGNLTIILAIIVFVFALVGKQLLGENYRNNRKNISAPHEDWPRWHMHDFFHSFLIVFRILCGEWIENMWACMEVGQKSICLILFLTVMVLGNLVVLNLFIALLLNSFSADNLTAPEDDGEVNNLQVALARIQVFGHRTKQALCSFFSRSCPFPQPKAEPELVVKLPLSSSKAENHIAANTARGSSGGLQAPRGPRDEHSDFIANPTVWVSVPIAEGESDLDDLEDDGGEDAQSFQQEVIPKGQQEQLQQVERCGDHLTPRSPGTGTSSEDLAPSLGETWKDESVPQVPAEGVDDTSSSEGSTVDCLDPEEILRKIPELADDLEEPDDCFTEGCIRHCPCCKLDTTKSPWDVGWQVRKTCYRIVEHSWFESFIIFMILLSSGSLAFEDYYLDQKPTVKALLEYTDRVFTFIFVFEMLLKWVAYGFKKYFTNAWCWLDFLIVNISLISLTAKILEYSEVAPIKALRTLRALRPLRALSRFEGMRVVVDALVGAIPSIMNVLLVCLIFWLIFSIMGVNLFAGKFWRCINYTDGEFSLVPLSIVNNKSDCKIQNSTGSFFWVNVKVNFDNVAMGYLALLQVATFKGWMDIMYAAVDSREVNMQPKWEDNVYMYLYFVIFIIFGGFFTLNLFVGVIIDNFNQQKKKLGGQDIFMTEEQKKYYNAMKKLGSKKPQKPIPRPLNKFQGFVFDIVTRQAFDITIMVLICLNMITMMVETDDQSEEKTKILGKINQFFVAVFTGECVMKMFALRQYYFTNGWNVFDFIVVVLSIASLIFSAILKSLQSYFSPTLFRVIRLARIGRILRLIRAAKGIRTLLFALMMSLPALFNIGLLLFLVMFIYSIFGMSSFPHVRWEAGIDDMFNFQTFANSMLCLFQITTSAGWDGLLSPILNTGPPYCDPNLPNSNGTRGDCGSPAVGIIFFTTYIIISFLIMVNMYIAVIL
Test: E-VIPR Assay Method A for detecting and measuring Nav inhibition (HEK cells, membrane potential FRET dyes, electrical stimulation)
Assay type: cell-based
Settings: HEK cells expressing human NaV 1.8, HS (human serum) in compound loading buffer, 11 point dose response, top dose 3 μM, Table 20A, read-out: Nav 1.8 MedChem Optical Assay EVIPR Assay Method A HS IC50
Doc: threshold 40 nM (exclusive). Items with IC50 beneath it return y; others return n.

Record excerpt, results attached:
Is 40 nM strictly greater than the molecule's reported IC50? molecule: COc1cc(OC(F)(F)F)ccc1Oc1cc(C(C)(C)C)ncc1C(=O)Nc1ccc(F)c(C(N)=O)c1 [Compound 94]
y

Is 40 nM strictly greater than the molecule's reported IC50? molecule: [2H]C([2H])([2H])Oc1c(Oc2cc(Cl)c(C(F)F)c(F)c2C(=O)Nc2ccnc(C(N)=O)c2)ccc(OC(F)(F)F)c1F [Compound 234]
y

Is 40 nM strictly greater than the molecule's reported IC50? molecule: Cn1nccc1-c1cc(F)ccc1Oc1ccc(C(F)(F)F)c(F)c1C(=O)Nc1ccc(F)c(C(N)=O)c1 [Compound 135]
n

Is 40 nM strictly greater than the molecule's reported IC50? molecule: COc1cc(OC(F)(F)F)ccc1Oc1cc(Cl)cc(OC)c1C(=O)Nc1ccc(C(N)=O)nc1 [Compound 204]
n

Is 40 nM strictly greater than the molecule's reported IC50? molecule: CNC(=O)c1cc(NC(=O)c2c(Oc3ccc(OC(F)(F)F)cc3OC)ccc(C(F)(F)F)c2F)ccc1F [Compound 99]
y

Is 40 nM strictly greater than the molecule's reported IC50? molecule: COc1cc(OC(F)(F)F)ccc1Oc1ccc(C(F)(F)F)c(F)c1C(=O)Nc1cc(C(N)=O)ccn1 [Compound 87]
n

Is 40 nM strictly greater than the molecule's reported IC50? molecule: COc1ccc(Oc2ccc(C(F)(F)F)c(F)c2C(=O)Nc2ccnc(C(N)=O)c2)c(OC)c1 [Compound 195]
y

Is 40 nM strictly greater than the molecule's reported IC50? molecule: [2H]C([2H])([2H])Oc1cc(OC(F)(F)F)ccc1Oc1cc(OC(F)(F)F)cc(F)c1C(=O)Nc1ccnc(C(N)=O)c1 [Compound 172]
y

Is 40 nM strictly greater than the molecule's reported IC50? molecule: COc1cc(OC(F)(F)F)ccc1Oc1ccc(C(F)(F)F)c(F)c1C(=O)Nc1cc(F)cc(C(N)=O)c1 [Compound 100]
y

Is 40 nM strictly greater than the molecule's reported IC50? molecule: COc1cc(Oc2ccc(C(F)(F)F)c(F)c2C(=O)Nc2ccc(F)c(C(N)=O)c2)ccc1OC(F)(F)F [Compound 126]
n

Further cases:
Is 40 nM strictly greater than the molecule's reported IC50? molecule: COc1cc(OC(F)(F)F)ccc1Oc1cc2c(cc1C(=O)Nc1ccc(F)c(C(N)=O)c1)OC(F)(F)O2 [Compound 122]
n

Is 40 nM strictly greater than the molecule's reported IC50? molecule: COc1cc(OC(F)(F)F)ccc1Oc1cnc(C(F)(F)F)c(OC)c1C(=O)Nc1ccnc(C(N)=O)c1 [Compound 166]
y

Is 40 nM strictly greater than the molecule's reported IC50? molecule: [2H]C([2H])([2H])Oc1c(Oc2ccc(C(F)(F)F)c(F)c2C(=O)Nc2ccc(C(=O)NC)nc2)ccc(OC(F)(F)F)c1F [Compound 229]
n

Is 40 nM strictly greater than the molecule's reported IC50? molecule: NC(=O)c1cc(NC(=O)c2c(Oc3ccc(OC(F)(F)F)cc3)ccc(C(F)(F)F)c2F)ccc1O [Compound 85]
n

Is 40 nM strictly greater than the molecule's reported IC50? molecule: COc1cc(OC(F)(F)F)ccc1Oc1ccc(F)c(Cl)c1C(=O)Nc1ccnc(C(N)=O)c1 [Compound 171]
y

Is 40 nM strictly greater than the molecule's reported IC50? molecule: [2H]C([2H])([2H])Oc1cc(OC(F)(F)F)ccc1Oc1ccc(C(F)(F)F)c(F)c1C(=O)Nc1cccc(C(N)=O)n1 [Compound 168]
n

Is 40 nM strictly greater than the molecule's reported IC50? molecule: COc1cc(OC(F)(F)F)ccc1Oc1ccc(C(F)(F)C(F)(F)F)cc1C(=O)Nc1ccnc(C(N)=O)c1 [Compound 81]
y

Is 40 nM strictly greater than the molecule's reported IC50? molecule: COc1nc(Cl)ccc1Oc1ccc(C(F)(F)F)c(F)c1C(=O)Nc1ccc(C(N)=O)c(F)c1 [Compound 67]
n

Is 40 nM strictly greater than the molecule's reported IC50? molecule: NC(=O)c1cc(NC(=O)c2c(Oc3ccc(OC(F)(F)F)cc3)ccc(C(F)F)c2F)ccn1 [Compound 83]
n

Is 40 nM strictly greater than the molecule's reported IC50? molecule: COc1cc(OC(F)(F)F)ccc1Oc1cc(C2CC2)c(F)cc1C(=O)Nc1ccnc(C(N)=O)c1 [Compound 116]
n

Is 40 nM strictly greater than the molecule's reported IC50? molecule: COc1cc(OC(F)(F)F)ccc1Oc1ccc(C(F)(F)F)c(F)c1C(=O)Nc1cccc(C(N)=O)n1 [Compound 169]
n

Is 40 nM strictly greater than the molecule's reported IC50? molecule: NC(=O)c1cc(NC(=O)c2c(Oc3ccc(F)cc3)ccc(C(F)(F)F)c2F)ccn1 [Compound 50]
n

Is 40 nM strictly greater than the molecule's reported IC50? molecule: NC(=O)c1cc(NC(=O)c2c(Oc3cccc4c3OCC4)ccc(C(F)(F)F)c2F)ccc1F [Compound 58]
n
